Data provenance: ChEMBL document CHEMBL4004881

Below: a set of entries, each annotated with reported Ki.
TEST PROTOCOL: Inhibition of Pseudomonas aeruginosa PA3774 using Boc-Lys(trifluoroacetyl)-AMC as substrate preincubated for 30 mins followed by substrate addition measured after 60 mins by trypsin-based fluorescence assay
Record the value in nM, omitting the unit from your answer.

RECORD SMILES | Ki (nM)
O=C(NO)C(F)(F)C(F)(F)C(F)(F)C(F)(F)C(F)(F)C(F)(F)C(=O)Nc1ccc(Cl)cc1 | 170

Asked: Any idea what its Ki is? The compound is O=C(NO)C(F)(F)C(F)(F)C(F)(F)C(F)(F)C(F)(F)C(F)(F)C(=O)Nc1ccccc1
Given back: 22

Asked: Any idea what its Ki is? The compound is O=C(NO)C(F)(F)C(F)(F)C(F)(F)C(F)(F)C(F)(F)C(F)(F)C(=O)Nc1ccc2cc3ccccc3cc2c1
Given back: 2000

Asked: Any idea what its Ki is? The compound is O=C(NO)C(F)(F)C(F)(F)C(F)(F)C(F)(F)C(F)(F)C(F)(F)C(=O)Nc1ccccc1Cl
Given back: 160
